System: HCT116 (colon)
experimental-details: In vitro cytotoxic activity (MTT) assay, HCT116
Assay type: cell-based
measurement-parameters: Homo sapiens, HCT-116; HCT116 (colon) cells, exposed for 96 hours; read-out: IC50, concentration of compound eliciting a 50% inhibition of cell proliferation
measured-endpoint: pIC50
// pIC50: -log10(molar conc.)

Request the reported pIC50 associated with Clc1cccc(Nc2c3cnccc3nc3c2[nH]c2ccncc23)c1 [Compound (1)]
5.96

* * *

Tested on: MDA-MB-231 (breast)
experimental-details: In vitro cytotoxic activity (MTT) assay, MDA-MB-231
Assay type: cell-based
measurement-parameters: Homo sapiens; MDA-MB-231 (breast) cells, exposed for 96 hours; read-out: IC50, concentration of compound eliciting a 50% inhibition of cell proliferation
measured-endpoint: pIC50
The meaning of pIC50 here: minus log10 of the concentration in molar units.

Fill in: pIC50 of Clc1cccc(Nc2c3cnccc3nc3c2[nH]c2ccncc23)c1 is ___
5.27

* * *

System: MCF7 (breast)
experimental-details: In vitro cytotoxic activity (MTT) assay, MCF7
Format: cell-based
measurement-parameters: Homo sapiens; MCF7 (breast) cells, exposed for 96 hours; read-out: IC50, concentration of compound eliciting a 50% inhibition of cell proliferation
measured-endpoint: IC50

Which IC50 is reported for this compound? Clc1cccc(Nc2c3cnccc3nc3c2[nH]c2ccncc23)c1
7.6 µM
